B1: INTS4 (parent)
chain: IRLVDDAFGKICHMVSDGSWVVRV

# Variants of: B1
# assay procedure: protein stability index of a GFP-peptide fusion (GPS, HEK-293T) (PSI 1-6); higher = more stable;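 further: lentivirally expressed fusions sorted by FACS into six bins by GFP to DsRed ratio, PSI derived from sequencing read proportions per bin multiplied by bin number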
# run parameters: c terminus: a fixed tail appended
Classes are defined on protein stability index with ranges low = under 2, middle = from 2 up to 3, high = 3 and over

## Task Returns: class label. Input: F8P
## Result middle

## Task Returns: class label. Input: W20Y
## Result middle

## Task Returns: class label. Input: A7K
## Result middle

## Task Returns: class label. Input: V4A
## Result high

Others:
## Task Returns: class label. Input: W20K
## Result low

## Task Returns: class label. Input: R23C
## Result high

## Task Returns: class label. Input: I1A
## Result middle

## Task Returns: class label. Input: S19W
## Result low

## Task Returns: class label. Input: I1C
## Result middle

## Task Returns: class label. Input: S16M
## Result middle

## Task Returns: class label. Input: V15K
## Result middle
